- ASSAYED_TARGET: T1, C3b (human, UniProt P01024 23-667; P01024 749-1663, limits assumed)
- T1 construct: domain: C3b; Prepared according to established protocols
- T1 sequence (P01024 23-667 limits assumed, chain 1 of 2): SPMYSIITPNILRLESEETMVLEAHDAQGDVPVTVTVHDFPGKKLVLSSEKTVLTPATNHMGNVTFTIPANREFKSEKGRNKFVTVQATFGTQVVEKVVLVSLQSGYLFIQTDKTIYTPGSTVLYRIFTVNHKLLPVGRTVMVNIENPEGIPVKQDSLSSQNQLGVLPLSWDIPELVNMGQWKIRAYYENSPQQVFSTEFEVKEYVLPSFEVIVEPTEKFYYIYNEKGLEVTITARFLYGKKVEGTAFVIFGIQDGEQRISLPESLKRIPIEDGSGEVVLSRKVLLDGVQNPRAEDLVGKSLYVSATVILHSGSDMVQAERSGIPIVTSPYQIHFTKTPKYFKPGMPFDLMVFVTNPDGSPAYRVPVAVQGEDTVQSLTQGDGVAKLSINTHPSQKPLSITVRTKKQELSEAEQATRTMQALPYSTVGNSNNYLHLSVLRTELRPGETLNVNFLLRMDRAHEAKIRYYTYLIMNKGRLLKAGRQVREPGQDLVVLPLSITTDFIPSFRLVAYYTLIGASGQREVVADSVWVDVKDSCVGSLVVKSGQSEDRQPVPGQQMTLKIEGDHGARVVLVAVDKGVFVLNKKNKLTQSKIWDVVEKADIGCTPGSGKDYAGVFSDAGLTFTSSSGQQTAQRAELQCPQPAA
- T1 sequence (P01024 749-1663 limits assumed, chain 2 of 2): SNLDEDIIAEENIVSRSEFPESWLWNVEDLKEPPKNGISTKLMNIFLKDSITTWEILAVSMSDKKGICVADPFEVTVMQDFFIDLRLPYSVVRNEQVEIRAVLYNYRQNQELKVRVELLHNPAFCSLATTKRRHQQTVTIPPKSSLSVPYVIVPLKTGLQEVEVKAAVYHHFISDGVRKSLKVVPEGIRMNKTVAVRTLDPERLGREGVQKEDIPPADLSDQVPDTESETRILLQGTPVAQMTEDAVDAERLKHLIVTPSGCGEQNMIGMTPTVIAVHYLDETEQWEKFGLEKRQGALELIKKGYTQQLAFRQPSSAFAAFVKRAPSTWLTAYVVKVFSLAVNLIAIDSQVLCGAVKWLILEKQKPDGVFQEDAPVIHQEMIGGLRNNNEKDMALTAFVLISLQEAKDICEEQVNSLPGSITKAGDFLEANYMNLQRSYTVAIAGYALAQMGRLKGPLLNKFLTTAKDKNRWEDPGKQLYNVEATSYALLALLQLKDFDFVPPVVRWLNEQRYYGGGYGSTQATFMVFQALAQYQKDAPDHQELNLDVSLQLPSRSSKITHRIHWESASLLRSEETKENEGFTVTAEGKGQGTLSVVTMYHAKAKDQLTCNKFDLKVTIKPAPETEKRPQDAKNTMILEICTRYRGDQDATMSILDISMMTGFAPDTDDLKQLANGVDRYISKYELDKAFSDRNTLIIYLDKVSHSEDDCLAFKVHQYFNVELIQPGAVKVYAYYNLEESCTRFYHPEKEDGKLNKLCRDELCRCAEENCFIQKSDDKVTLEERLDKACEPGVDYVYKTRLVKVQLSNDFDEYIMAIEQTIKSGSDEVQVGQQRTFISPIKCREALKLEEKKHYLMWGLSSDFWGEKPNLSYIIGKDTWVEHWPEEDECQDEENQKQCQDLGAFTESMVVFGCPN
- PROTOCOL: SPR (Biacore 2000), Efb-C immobilized, C3b as analyte, 1:1 Langmuir model; Kd=koff/kon
READOUT_LABEL: pKd
Give only the number. pKd is defined as minus log10 of concentration in molar units.

Please look up its pKd: Efb-C, C-terminal C3-binding domain of Efb from S. aureus strain Mu50 (other, Monomer in solution; also called wild-type Efb-C) FNKPAAKTDATIKKEQKLIQAQNLVREFEKTHTVSAHRKAQKAVNLVSFEYKVKKMVLQERIDNVLKQGLVR
8.06
